- Tested on: C. albicans
Give MIC for every item shown.
Numbers only, in µg/mL.

Examples from the recorded data:
COMPOUND | VAL
CC(C)CCC[C@@H](C)[C@H]1CCC2C3C(CC[C@@]21C)[C@@]1(C)CC[C@H](NCCCN)C[C@@H]1C[C@H]3O (stereo partly shown) [SA-4] | 2
CC(C)CCC[C@@H](C)[C@H]1CCC2C3C(CC[C@@]21C)[C@@]1(C)CC[C@H](NCCCNCCCCNCCCN)C[C@@H]1C[C@@H]3O (stereo partly drawn) [SA-2, 3β-Spermino-7β-hydroxy-5α-cholestane] | 2
CC(C)CCC[C@@H](C)[C@H]1CCC2C3C(CC[C@@]21C)[C@@]1(C)CC[C@H](NCCCCN)C[C@@H]1C[C@H]3O (stereo partly shown) [SA-5] | 4

For every item in the list below, what is its measured MIC?
1. CC(C)[C@@H](CC[C@@H](C)[C@H]1CC[C@H]2[C@@H]3[C@H](O)C[C@H]4C[C@@H](NCCCNCCCCN)CC[C@]4(C)[C@H]3CC[C@]12C)OS(=O)(=O)O [Squalamine, squalamine]
2. CC(C)CCC[C@@H](C)[C@H]1CCC2C3C(CC[C@@]21C)[C@@]1(C)CC[C@H](NCCCNCCCCNCCCN)C[C@@H]1C[C@H]3O (stereo partly drawn) [SA-1, 3β-Spermino-7α-hydroxy-5α-cholestane]
3. CC(C)CCC[C@@H](C)[C@H]1CCC2C3C(CC[C@@]21C)[C@@]1(C)CC[C@H](NCCN(CCN)CCN)C[C@@H]1C[C@H]3O (stereo partly shown) [SA-6]
4. CC(C)CCC[C@@H](C)[C@H]1CCC2C3C(CC[C@@]21C)[C@@]1(C)CC[C@H](NCCCNCCCN)C[C@@H]1C[C@@H]3O (stereo partly shown) [SA-3]

Result ::
1. 2
2. 2
3. 2.5
4. 2.5
